Measured protein stability index of individual entries
B1: MGC16075 (parent)
chain: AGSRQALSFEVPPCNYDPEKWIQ

Variants of: B1
testProtocol: protein stability index of a GFP-peptide fusion (GPS, HEK-293T) (PSI 1-6); higher = more stable;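 also: lentivirally expressed fusions sorted by FACS into six bins by GFP to DsRed ratio, PSI derived from sequencing read proportions per bin multiplied by bin number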
conditionInfo: c terminus: native
assayMetric: protein stability index

[[record]]
biosequence = "AGFRQALSFEVPPCNYDPEKWIQ [S3F]"
assaymetric = "protein stability index"
reportedvalue = 4.6

[[record]]
biosequence = "AGSRQALSFEVPPCFYDPEKWIQ [N15F]"
assaymetric = "protein stability index"
reportedvalue = 1.96

[[record]]
biosequence = "AGSRQALSFEVPFCNYDPEKWIQ [P13F]"
assaymetric = "protein stability index"
reportedvalue = 2.1

[[record]]
biosequence = "AGSRQALSFEAPPCNYDPEKWIQ [V11A]"
assaymetric = "protein stability index"
reportedvalue = 2.52

[[record]]
biosequence = "AGSRQALSKEVPPCNYDPEKWIQ [F9K]"
assaymetric = "protein stability index"
reportedvalue = 3.19

[[record]]
biosequence = "AGSRQALSFEVPACNYDPEKWIQ [P13A]"
assaymetric = "protein stability index"
reportedvalue = 1.43

[[record]]
biosequence = "AGSRQALSFEVPYCNYDPEKWIQ [P13Y]"
assaymetric = "protein stability index"
reportedvalue = 2.88

[[record]]
biosequence = "AGSRQALSFPVPPCNYDPEKWIQ [E10P]"
assaymetric = "protein stability index"
reportedvalue = 2.3

[[record]]
biosequence = "HGSRQALSFEVPPCNYDPEKWIQ [A1H]"
assaymetric = "protein stability index"
reportedvalue = 1.82

[[record]]
biosequence = "AGSRQAQSFEVPPCNYDPEKWIQ [L7Q]"
assaymetric = "protein stability index"
reportedvalue = 2.57

[[record]]
biosequence = "ADSRQALSFEVPPCNYDPEKWIQ [G2D]"
assaymetric = "protein stability index"
reportedvalue = 1.93

[[record]]
biosequence = "AGSRQALSFEVPPCNYDIEKWIQ [P18I]"
assaymetric = "protein stability index"
reportedvalue = 1.92

[[record]]
biosequence = "AGSRQALSFEVPPCNYDPEKWCQ [I22C]"
assaymetric = "protein stability index"
reportedvalue = 4.56

[[record]]
biosequence = "AGSRQALSFEVPPCNYDPEKQIQ [W21Q]"
assaymetric = "protein stability index"
reportedvalue = 2.83

[[record]]
biosequence = "AGSRQALSFEVPPCNYDPVKWIQ [E19V]"
assaymetric = "protein stability index"
reportedvalue = 1.86

[[record]]
biosequence = "AGSRQALSFEEPPCNYDPEKWIQ [V11E]"
assaymetric = "protein stability index"
reportedvalue = 2.07

[[record]]
biosequence = "AGSRQALSFEVSPCNYDPEKWIQ [P12S]"
assaymetric = "protein stability index"
reportedvalue = 1.71

[[record]]
biosequence = "AGSRQVLSFEVPPCNYDPEKWIQ [A6V]"
assaymetric = "protein stability index"
reportedvalue = 2.59

[[record]]
biosequence = "AGSRQALSFEVPPCNYDPEYWIQ [K20Y]"
assaymetric = "protein stability index"
reportedvalue = 3.78

[[record]]
biosequence = "AGSRQALSFEVPPCNYDPEDWIQ [K20D]"
assaymetric = "protein stability index"
reportedvalue = 4.29

[[record]]
biosequence = "AGSRQALSFEVPLCNYDPEKWIQ [P13L]"
assaymetric = "protein stability index"
reportedvalue = 1.62

[[record]]
biosequence = "AGSRQALSFEVPPCPYDPEKWIQ [N15P]"
assaymetric = "protein stability index"
reportedvalue = 2.68

[[record]]
biosequence = "AGSRQALSFEVPPCNYDPHKWIQ [E19H]"
assaymetric = "protein stability index"
reportedvalue = 2.64

[[record]]
biosequence = "AGSRQALSFEVPPWNYDPEKWIQ [C14W]"
assaymetric = "protein stability index"
reportedvalue = 1.56

[[record]]
biosequence = "AGSRQALSFEVPPCNIDPEKWIQ [Y16I]"
assaymetric = "protein stability index"
reportedvalue = 2.01

[[record]]
biosequence = "YGSRQALSFEVPPCNYDPEKWIQ [A1Y]"
assaymetric = "protein stability index"
reportedvalue = 2.8

[[record]]
biosequence = "AGSRQALSREVPPCNYDPEKWIQ [F9R]"
assaymetric = "protein stability index"
reportedvalue = 2.78

[[record]]
biosequence = "AGSRQALSFEVPPCNYDPEKWHQ [I22H]"
assaymetric = "protein stability index"
reportedvalue = 4.62

[[record]]
biosequence = "AGSRQALSFEVPPCNYDPAKWIQ [E19A]"
assaymetric = "protein stability index"
reportedvalue = 1.22

[[record]]
biosequence = "AGSPQALSFEVPPCNYDPEKWIQ [R4P]"
assaymetric = "protein stability index"
reportedvalue = 2.77

[[record]]
biosequence = "AGSRQALSFEVPPCNYDPLKWIQ [E19L]"
assaymetric = "protein stability index"
reportedvalue = 3.01

[[record]]
biosequence = "AGSRQALSFIVPPCNYDPEKWIQ [E10I]"
assaymetric = "protein stability index"
reportedvalue = 2.29

[[record]]
biosequence = "AGSRQALSFEVPPCNYDPEHWIQ [K20H]"
assaymetric = "protein stability index"
reportedvalue = 3.7

[[record]]
biosequence = "AGSRQALSMEVPPCNYDPEKWIQ [F9M]"
assaymetric = "protein stability index"
reportedvalue = 2.29

[[record]]
biosequence = "AGSRQALPFEVPPCNYDPEKWIQ [S8P]"
assaymetric = "protein stability index"
reportedvalue = 1.91

[[record]]
biosequence = "AGSRQALSFEVPPCNYDPGKWIQ [E19G]"
assaymetric = "protein stability index"
reportedvalue = 2.16

[[record]]
biosequence = "AGSRQALSFEVPPCNYDQEKWIQ [P18Q]"
assaymetric = "protein stability index"
reportedvalue = 2.03

[[record]]
biosequence = "AGSRQALSFEVPPCNYDPYKWIQ [E19Y]"
assaymetric = "protein stability index"
reportedvalue = 2.07

[[record]]
biosequence = "AGGRQALSFEVPPCNYDPEKWIQ [S3G]"
assaymetric = "protein stability index"
reportedvalue = 2.88

[[record]]
biosequence = "AGSRQALSFEVPPCNYEPEKWIQ [D17E]"
assaymetric = "protein stability index"
reportedvalue = 2.07

[[record]]
biosequence = "AGSRQALSFEVPPCWYDPEKWIQ [N15W]"
assaymetric = "protein stability index"
reportedvalue = 2.14

[[record]]
biosequence = "ATSRQALSFEVPPCNYDPEKWIQ [G2T]"
assaymetric = "protein stability index"
reportedvalue = 1.95

[[record]]
biosequence = "AGSRQALSFEVPPCNYDPEKFIQ [W21F]"
assaymetric = "protein stability index"
reportedvalue = 2.89

[[record]]
biosequence = "AGSRQALSFEVPPCNYDPIKWIQ [E19I]"
assaymetric = "protein stability index"
reportedvalue = 1.84

[[record]]
biosequence = "AGSRQALSFEVPPCNDDPEKWIQ [Y16D]"
assaymetric = "protein stability index"
reportedvalue = 2.52

[[record]]
biosequence = "AGSRQALSFEVRPCNYDPEKWIQ [P12R]"
assaymetric = "protein stability index"
reportedvalue = 1.81

[[record]]
biosequence = "AGSRQALSFEVPKCNYDPEKWIQ [P13K]"
assaymetric = "protein stability index"
reportedvalue = 2.34

[[record]]
biosequence = "WGSRQALSFEVPPCNYDPEKWIQ [A1W]"
assaymetric = "protein stability index"
reportedvalue = 3.29

[[record]]
biosequence = "AGSRQALSFEVPPCQYDPEKWIQ [N15Q]"
assaymetric = "protein stability index"
reportedvalue = 3.17

[[record]]
biosequence = "AGSRQALSFEVPPCNYDMEKWIQ [P18M]"
assaymetric = "protein stability index"
reportedvalue = 1.91

[[record]]
biosequence = "AGSRQALSFEVPTCNYDPEKWIQ [P13T]"
assaymetric = "protein stability index"
reportedvalue = 1.99

[[record]]
biosequence = "AQSRQALSFEVPPCNYDPEKWIQ [G2Q]"
assaymetric = "protein stability index"
reportedvalue = 2.2

[[record]]
biosequence = "AGSRQALSFEVPPCNYQPEKWIQ [D17Q]"
assaymetric = "protein stability index"
reportedvalue = 2.18

[[record]]
biosequence = "AGSRQALSFEVPPCCYDPEKWIQ [N15C]"
assaymetric = "protein stability index"
reportedvalue = 2.23

[[record]]
biosequence = "AGSRQAESFEVPPCNYDPEKWIQ [L7E]"
assaymetric = "protein stability index"
reportedvalue = 3.23

[[record]]
biosequence = "AGSRQALSFEVPPCNGDPEKWIQ [Y16G]"
assaymetric = "protein stability index"
reportedvalue = 3.5

[[record]]
biosequence = "DGSRQALSFEVPPCNYDPEKWIQ [A1D]"
assaymetric = "protein stability index"
reportedvalue = 2.9

[[record]]
biosequence = "AGSRQALSFCVPPCNYDPEKWIQ [E10C]"
assaymetric = "protein stability index"
reportedvalue = 2.27

[[record]]
biosequence = "AGSRQALSFDVPPCNYDPEKWIQ [E10D]"
assaymetric = "protein stability index"
reportedvalue = 2.6

[[record]]
biosequence = "AGSRQALSFEVPPCNYDVEKWIQ [P18V]"
assaymetric = "protein stability index"
reportedvalue = 1.99

[[record]]
biosequence = "AGSRQALSFEVPPCNYDREKWIQ [P18R]"
assaymetric = "protein stability index"
reportedvalue = 2.36

[[record]]
biosequence = "AGSHQALSFEVPPCNYDPEKWIQ [R4H]"
assaymetric = "protein stability index"
reportedvalue = 2.67

[[record]]
biosequence = "AGSRQALSFETPPCNYDPEKWIQ [V11T]"
assaymetric = "protein stability index"
reportedvalue = 1.89

[[record]]
biosequence = "AASRQALSFEVPPCNYDPEKWIQ [G2A]"
assaymetric = "protein stability index"
reportedvalue = 1.77

[[record]]
biosequence = "AGSRQALTFEVPPCNYDPEKWIQ [S8T]"
assaymetric = "protein stability index"
reportedvalue = 3.31

[[record]]
biosequence = "AGSRQALSFEVPPCNYYPEKWIQ [D17Y]"
assaymetric = "protein stability index"
reportedvalue = 2.15

[[record]]
biosequence = "AGSRQALSCEVPPCNYDPEKWIQ [F9C]"
assaymetric = "protein stability index"
reportedvalue = 2.57

[[record]]
biosequence = "AGSRQALSFEVPQCNYDPEKWIQ [P13Q]"
assaymetric = "protein stability index"
reportedvalue = 2.03

[[record]]
biosequence = "AGSRQALSFEVPPCNYDPEKKIQ [W21K]"
assaymetric = "protein stability index"
reportedvalue = 3.53

[[record]]
biosequence = "AGSRQALVFEVPPCNYDPEKWIQ [S8V]"
assaymetric = "protein stability index"
reportedvalue = 1.54

[[record]]
biosequence = "AGSRQALSFEVPPCNYDPEKWIF [Q23F]"
assaymetric = "protein stability index"
reportedvalue = 2.23

[[record]]
biosequence = "AGSRQALSFEVPPCNYDPEKWAQ [I22A]"
assaymetric = "protein stability index"
reportedvalue = 4.22

[[record]]
biosequence = "AGSRQFLSFEVPPCNYDPEKWIQ [A6F]"
assaymetric = "protein stability index"
reportedvalue = 2.46

[[record]]
biosequence = "AGSRQALSFEVGPCNYDPEKWIQ [P12G]"
assaymetric = "protein stability index"
reportedvalue = 1.37

[[record]]
biosequence = "AGSRQALSFEVPPCNYRPEKWIQ [D17R]"
assaymetric = "protein stability index"
reportedvalue = 2.15

[[record]]
biosequence = "AGSRQALSSEVPPCNYDPEKWIQ [F9S]"
assaymetric = "protein stability index"
reportedvalue = 2.77

[[record]]
biosequence = "AGSRQALSFEVPPCNYDPEKDIQ [W21D]"
assaymetric = "protein stability index"
reportedvalue = 3.28

[[record]]
biosequence = "AGSRQALSFEVPPCNYDPTKWIQ [E19T]"
assaymetric = "protein stability index"
reportedvalue = 1.97

[[record]]
biosequence = "AGMRQALSFEVPPCNYDPEKWIQ [S3M]"
assaymetric = "protein stability index"
reportedvalue = 1.92

[[record]]
biosequence = "AGSRQALSFEVPPCNYDDEKWIQ [P18D]"
assaymetric = "protein stability index"
reportedvalue = 1.93

[[record]]
biosequence = "AGSRQALSFEVPPCNYDPFKWIQ [E19F]"
assaymetric = "protein stability index"
reportedvalue = 2.33

[[record]]
biosequence = "AGSRQALSFEVPPDNYDPEKWIQ [C14D]"
assaymetric = "protein stability index"
reportedvalue = 2

[[record]]
biosequence = "AGSRQALSFEVIPCNYDPEKWIQ [P12I]"
assaymetric = "protein stability index"
reportedvalue = 1.17

[[record]]
biosequence = "GGSRQALSFEVPPCNYDPEKWIQ [A1G]"
assaymetric = "protein stability index"
reportedvalue = 1.68

[[record]]
biosequence = "AGSRQALSFEVPPCNYLPEKWIQ [D17L]"
assaymetric = "protein stability index"
reportedvalue = 1.81

[[record]]
biosequence = "AGSRQALSFEMPPCNYDPEKWIQ [V11M]"
assaymetric = "protein stability index"
reportedvalue = 2.11

[[record]]
biosequence = "AGSRQELSFEVPPCNYDPEKWIQ [A6E]"
assaymetric = "protein stability index"
reportedvalue = 1.92

[[record]]
biosequence = "AGPRQALSFEVPPCNYDPEKWIQ [S3P]"
assaymetric = "protein stability index"
reportedvalue = 2.18

[[record]]
biosequence = "AGSRQALSFEDPPCNYDPEKWIQ [V11D]"
assaymetric = "protein stability index"
reportedvalue = 2.93

[[record]]
biosequence = "AGSCQALSFEVPPCNYDPEKWIQ [R4C]"
assaymetric = "protein stability index"
reportedvalue = 1.57

[[record]]
biosequence = "AGSRQALQFEVPPCNYDPEKWIQ [S8Q]"
assaymetric = "protein stability index"
reportedvalue = 1.26


Ref: the supplement of paper PMC10567573
